// reported EC50 for each item listed
# measurementTarget: recombinant GSK3β kinase (Homo sapiens (Human), UniProt P49841)
# Sequence (P49841 whole entry): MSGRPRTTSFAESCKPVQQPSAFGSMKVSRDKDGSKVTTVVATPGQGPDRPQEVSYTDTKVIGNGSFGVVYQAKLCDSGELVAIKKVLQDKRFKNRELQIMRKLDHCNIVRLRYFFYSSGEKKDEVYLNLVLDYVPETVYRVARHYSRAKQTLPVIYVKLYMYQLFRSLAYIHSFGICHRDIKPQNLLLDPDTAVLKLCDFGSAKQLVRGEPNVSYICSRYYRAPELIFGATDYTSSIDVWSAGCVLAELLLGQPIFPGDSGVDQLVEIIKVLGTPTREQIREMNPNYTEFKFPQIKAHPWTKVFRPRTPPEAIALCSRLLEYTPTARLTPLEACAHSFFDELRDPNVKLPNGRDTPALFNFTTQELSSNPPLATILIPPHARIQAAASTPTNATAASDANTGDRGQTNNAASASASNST
# assay: GSK3β kinase assay (Ser/Thr 09 peptide Z-lyte FRET);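 further: kinase activity read as coumarin to fluorescein emission ratio, 11-point threefold dilutions from 10 µM to 0.0003 µM in duplicate, unphosphorylated and phosphorylated peptide as 0% and 100% controls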
# measurementParameters: 46 μM ATP, 1 h room temperature

| compound | measurementTarget | EC50 / nM |
| --- | --- | --- |
| Cn1cncc1-c1ccc2cnc(NC(=O)C(C)(C)F)cc2c1 [Compound 517] | recombinant GSK3β kinase (Homo sapiens (Human), UniProt P49841) | 470 |
| O=C(Nc1cc2cc(-c3cnn4c3CN(CCF)CC4)ccc2cn1)C1CCN(CC2(C(F)(F)F)CC2)CC1 [Compound 998] | recombinant GSK3β kinase (Homo sapiens (Human), UniProt P49841) | 102 |
| CC(C)CN1CCCC(C(=O)Nc2cc3cc(-c4cnn(C)c4)ccc3cn2)CC1 (centres unmarked) [Compound 1079] | recombinant GSK3β kinase (Homo sapiens (Human), UniProt P49841) | 48 |
| CN1CCN(CC(=O)Nc2cc3cc(-c4cnco4)ccc3cn2)CC1 [Compound 983] | recombinant GSK3β kinase (Homo sapiens (Human), UniProt P49841) | 303 |
| O=C(Nc1cc2cc(-c3cncs3)ccc2cn1)C1CNC1 [Compound 713] | recombinant GSK3β kinase (Homo sapiens (Human), UniProt P49841) | 98 |
| Cn1cc(-c2ccc3cnc(NC(=O)[C@H]4CC[C@H](CO)CC4)cc3c2)cn1 [Compound 333] | recombinant GSK3β kinase (Homo sapiens (Human), UniProt P49841) | 60 |
| CN(C)c1nnc(-c2ccc3cnc(NC(=O)C4CCNCC4)cc3c2)o1 [Compound 1075] | recombinant GSK3β kinase (Homo sapiens (Human), UniProt P49841) | 15 |
| CN(C)[C@H]1CC[C@H](C(=O)Nc2cc3cc(-c4cncs4)ccc3cn2)CC1 [Compound 707] | recombinant GSK3β kinase (Homo sapiens (Human), UniProt P49841) | 46 |

###

# System: Tau phosphorylation at Ser396 (pSer396)
# assay: Tau phosphorylation assay (pSer396 ELISA / western blot) in SH-SY5Y cells;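 further: EC50 for reduction of Tau pSer396 in lysed cells, measured by colorimetric ELISA or chemiluminescent western blot, both using the same pSer396 antibody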
# Assay type: cell-based, human
# measurementParameters: Homo sapiens; SH-SY5Y cells, overnight (16-18 h) exposure; read-out: pSer396 Tau EC50
pEC50: −log10 of the molar value.
measurementType: pEC50

| molecule | measurementTarget | measuredValue |
| --- | --- | --- |
| Cn1cc(-c2ccc3cnc(NC(=O)C4CCN(CC(C)(F)F)CC4)cc3c2)cn1 [Compound 83] | Tau phosphorylation at Ser396 (pSer396) | 6.36 |
| CN1CCN(CC23CC(C(=O)Nc4cc5cc(-c6cnn(C)c6)ccc5cn4)(C2)C3)CC1 [Compound 1088] | Tau phosphorylation at Ser396 (pSer396) | 5.07 |
| Cn1cc(-c2ccc3cnc(NC(=O)C4CCN(Cc5ncco5)CC4)cc3c2)cn1 [Compound 360] | Tau phosphorylation at Ser396 (pSer396) | 6.18 |
| CC(C)CN1CCC(C(=O)Nc2cc3cc(-c4nnnn4C)ccc3cn2)CC1 [Compound 1092] | Tau phosphorylation at Ser396 (pSer396) | 6.88 |
| Cn1cc(-c2ccc3cnc(NC(=O)C4CCN(Cc5cnccn5)CC4)cc3c2)cn1 [Compound 1004] | Tau phosphorylation at Ser396 (pSer396) | 6.18 |
| Cn1cncc1-c1ccc2cnc(NC(=O)[C@H]3CCCO3)cc2c1 [Compound 537] | Tau phosphorylation at Ser396 (pSer396) | 6.35 |
| CCN(CC)c1ncc(-c2ccc3cnc(NC(=O)CN4CCN(C)CC4)cc3c2)s1 [Compound 1048] | Tau phosphorylation at Ser396 (pSer396) | 5.33 |
| Cc1nnc(-c2ccc3cnc(NC(=O)C4CCN(CCC(F)(F)F)CC4)cc3c2)n1C [Compound 279] | Tau phosphorylation at Ser396 (pSer396) | 6.30 |
